B1: VH:VL chains; a variant is named by its letters at X, in order (parent)
chain 1: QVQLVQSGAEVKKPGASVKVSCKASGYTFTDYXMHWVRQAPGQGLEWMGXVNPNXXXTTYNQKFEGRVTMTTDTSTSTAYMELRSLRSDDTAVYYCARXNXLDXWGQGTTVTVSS
chain 2: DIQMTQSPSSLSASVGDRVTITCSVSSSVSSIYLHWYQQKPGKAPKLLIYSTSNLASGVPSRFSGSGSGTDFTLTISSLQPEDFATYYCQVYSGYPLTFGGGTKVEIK

variants of: B1; experiment: yeast display scFab, FACS + sequencing
Readout kind: non-specific binding call

# annotated cases, reported non-specific binding call shown
YGGRGAVA | no binding
VEGRGDGA | no binding
YEGGGDVA | no binding
YRTRSAGV | binds
YRRGGALV | binds
SKGASFAY | binds

Exam item: What does the record list as non-specific binding call for "VEGEDAAA" ?
Marked response: no binding

Exam item: What does the record list as non-specific binding call for "YKAGGAWD" ?
Marked response: binds

Exam item: What does the record list as non-specific binding call for "SEARSAGV" ?
Marked response: no binding

Exam item: What does the record list as non-specific binding call for "YRAETDVA" ?
Marked response: no binding

Exam item: What does the record list as non-specific binding call for "SAGRGVGS" ?
Marked response: binds

Exam item: What does the record list as non-specific binding call for "DREEGVGV" ?
Marked response: no binding
